biological target: human MSR1 extracellular domain expressed with a N-terminal nonahistidine tag (His9-hMSR1; R&D Systems, Cat #2708-MS) (human) (UniProt P21757); test: competition ELISA; 1 µM antibody, competitor 10 nM Ox-LDL, plate-coated His9-hMSR1
Sequence (P21757 other isoform, or with tags, fused parts or gaps): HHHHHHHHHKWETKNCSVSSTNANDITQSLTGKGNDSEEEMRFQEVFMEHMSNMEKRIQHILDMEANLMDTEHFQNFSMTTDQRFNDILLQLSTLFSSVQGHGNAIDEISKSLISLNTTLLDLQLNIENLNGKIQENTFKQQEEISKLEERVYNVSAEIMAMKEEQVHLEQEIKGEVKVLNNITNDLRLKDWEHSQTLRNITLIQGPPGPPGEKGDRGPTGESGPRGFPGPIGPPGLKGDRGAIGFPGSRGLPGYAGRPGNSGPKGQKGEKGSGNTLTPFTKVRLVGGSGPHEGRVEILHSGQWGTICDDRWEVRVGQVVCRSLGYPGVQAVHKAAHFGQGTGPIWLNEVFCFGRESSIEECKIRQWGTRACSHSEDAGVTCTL
quantity: % Blocking (%)
Please state the figure in %; there is no need to write the unit.

• H1H27754P-N297Q (antibody, human IgG1, V domains shown) VH: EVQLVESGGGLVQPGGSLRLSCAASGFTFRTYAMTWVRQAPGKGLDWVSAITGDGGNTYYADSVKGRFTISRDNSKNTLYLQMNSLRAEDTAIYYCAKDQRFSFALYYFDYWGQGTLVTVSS VL: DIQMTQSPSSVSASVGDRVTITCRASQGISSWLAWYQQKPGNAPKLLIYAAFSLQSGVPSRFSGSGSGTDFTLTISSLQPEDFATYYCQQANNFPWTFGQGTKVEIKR = -44
• H1H27747P-N297Q (antibody, human IgG1, V domains shown) VH: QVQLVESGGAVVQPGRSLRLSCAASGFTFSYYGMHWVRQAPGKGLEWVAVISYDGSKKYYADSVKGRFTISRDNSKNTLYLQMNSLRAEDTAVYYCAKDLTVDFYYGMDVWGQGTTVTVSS VL: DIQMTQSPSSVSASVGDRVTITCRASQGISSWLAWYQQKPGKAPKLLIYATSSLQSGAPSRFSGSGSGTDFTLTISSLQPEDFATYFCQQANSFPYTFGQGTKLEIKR = -31
• H1H27734P-N297Q (antibody, human IgG1, V domains shown) VH: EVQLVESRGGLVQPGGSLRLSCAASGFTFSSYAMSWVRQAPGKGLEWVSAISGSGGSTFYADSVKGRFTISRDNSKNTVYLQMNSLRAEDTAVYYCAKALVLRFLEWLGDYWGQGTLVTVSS VL: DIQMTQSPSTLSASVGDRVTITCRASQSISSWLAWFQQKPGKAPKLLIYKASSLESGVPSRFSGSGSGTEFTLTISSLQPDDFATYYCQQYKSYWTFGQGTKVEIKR = -15

% Blocking for H1H27739P-N297Q (antibody, human IgG1, V domains shown) VH: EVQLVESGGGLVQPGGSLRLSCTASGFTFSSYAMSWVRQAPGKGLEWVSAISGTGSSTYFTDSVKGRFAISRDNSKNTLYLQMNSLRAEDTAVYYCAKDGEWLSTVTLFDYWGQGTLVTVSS VL: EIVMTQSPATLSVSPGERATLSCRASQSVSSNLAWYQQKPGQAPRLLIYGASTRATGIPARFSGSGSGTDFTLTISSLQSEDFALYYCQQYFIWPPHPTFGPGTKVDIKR ? -41

% Blocking for H1H27729P-N297Q (antibody, human IgG1, V domains shown) VH: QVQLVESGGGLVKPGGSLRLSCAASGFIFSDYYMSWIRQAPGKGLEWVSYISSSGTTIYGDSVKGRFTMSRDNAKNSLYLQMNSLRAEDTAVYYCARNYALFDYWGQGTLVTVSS VL: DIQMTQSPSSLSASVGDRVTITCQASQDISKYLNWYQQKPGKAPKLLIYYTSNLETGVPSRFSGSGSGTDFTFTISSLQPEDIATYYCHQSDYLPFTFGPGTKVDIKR ? 36
